// provenance: patent US20120321697A1

- assay_target: T1, VCAM1-Trx (human, UniProt P19320 25-698)
- T1 construct: the form used in SPR is not described; also called Trx-VCAM1; vascular cell adhesion molecule-1; not shown: Trx (thioredoxin) fusion partner and tags of pET32a
- T1 sequence (looked up): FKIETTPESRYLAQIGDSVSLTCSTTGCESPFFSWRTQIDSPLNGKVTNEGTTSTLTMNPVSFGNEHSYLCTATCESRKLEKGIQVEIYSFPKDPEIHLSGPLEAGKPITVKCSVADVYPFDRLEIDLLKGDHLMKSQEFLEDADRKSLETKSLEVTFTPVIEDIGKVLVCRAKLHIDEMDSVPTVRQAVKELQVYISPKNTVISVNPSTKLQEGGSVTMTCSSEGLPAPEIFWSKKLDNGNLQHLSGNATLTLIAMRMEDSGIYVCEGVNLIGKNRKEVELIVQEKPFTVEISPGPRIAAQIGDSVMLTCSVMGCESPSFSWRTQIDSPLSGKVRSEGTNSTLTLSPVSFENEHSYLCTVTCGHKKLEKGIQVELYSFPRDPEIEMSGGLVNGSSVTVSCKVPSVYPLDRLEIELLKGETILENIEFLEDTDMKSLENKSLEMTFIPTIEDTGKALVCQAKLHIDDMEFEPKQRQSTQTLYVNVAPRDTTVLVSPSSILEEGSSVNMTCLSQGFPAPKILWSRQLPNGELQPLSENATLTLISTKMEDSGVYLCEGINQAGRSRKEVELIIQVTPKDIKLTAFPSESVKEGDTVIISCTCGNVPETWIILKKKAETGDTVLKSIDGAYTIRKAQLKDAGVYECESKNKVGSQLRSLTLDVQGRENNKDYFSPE
- procedure_summary: SPR (Biacore), synthetic peptide; immobilisation of VCAM1 not described
observation_type: pKd
In simple prose, pKd is minus the logarithm base ten of a concentration in moles per litre.

Exercise: pKd for QARDCTGSWTWENGKWTWKGPSICPI (Synthetic peptide in SPR; also called BPB) [Peptide 1 specific to VCAM1 (Table 3c)] ?
Solution: 6.50
